Collected ALP values appear next to each entry.
Species on record: Rattus norvegicus
Assay: Open TG-GATES - Regimen: Single
Type: toxicity, organism-based, Sprague-Dawley
Set-up: regimen Single, gender Male, age 6 weeks
Details: in vivo, po, 0 mg/kg, 6 h, tissue Plasma, route gavage, dose level Control
Reply numerically in IU/L, unit not repeated.

Some solved cases for reference:
| COMPOUND | ALP (IU/L) |
| --- | --- |
| CCSCC[C@H](N)C(=O)O [ETHIONINE] | 1036.8 |
| C#C[C@]1(O)CC[C@H]2[C@@H]3CCc4cc(O)ccc4[C@H]3CC[C@@]21C [ETHINYL ESTRADIOL] | 1686.2 |
| CC(=N)S [THIOACETAMIDE] | 828.6 |

*Q* So what's the measured ALP for this one? C[C@]12CCC(=O)C=C1CC[C@@H]1[C@@H]2CC[C@@]2(C)[C@H]1CC[C@]2(C)O [METHYLTESTOSTERONE]
*A* 1516.2

*Q* Would you mind doing CC(C)C(=O)Nc1ccc([N+](=O)[O-])c(C(F)(F)F)c1 [FLUTAMIDE] as well?
*A* 1030.8

*Q* Would you mind doing Oc1ncnc2[nH]ncc12 [ALLOPURINOL] as well?
*A* 787

*Q* Would you mind doing O=C(N[C@H](CO)[C@H](O)c1ccc([N+](=O)[O-])cc1)C(Cl)Cl [CHLORAMPHENICOL] as well?
*A* 1343.8

*Q* Would you mind doing C[C@](N)(Cc1ccc(O)c(O)c1)C(=O)O [METHYLDOPA] as well?
*A* 1652.4

*Q* Would you mind doing Nc1nc(N)c2nc(-c3ccccc3)c(N)nc2n1 as well?
*A* 1424.2

*Q* Would you mind doing O=C(O)c1cccnc1 [NIACIN] as well?
*A* 1639.8

Sourced from ChEMBL document CHEMBL3885861
